# TESTED ON: T1, integrin β3(P685-F727) transmembrane peptide with C687S (human, UniProt P05106 711-753, C687S)
# T1 chain (looked up): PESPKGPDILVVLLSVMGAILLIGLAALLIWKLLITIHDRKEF
# PROCEDURE SUMMARY: ITC
Please provide measured dH for the entries that follow.
One number for each entry, in kcal/mol.

ALEERAIPIWVVLVAVLGGLLLLTILVLAMWKVGFFKRNRP (peptide, UniProt P08514 989-1029, looked up) [integrin αIIb(A958-P998) transmembrane peptide with W968V/G972A] | -14.4
ALEERAIPIWAVLVGVLGGLLLLTILVLAMWKVGFFKRNRP (peptide, UniProt P08514 989-1029, looked up) [integrin αIIb(A958-P998) transmembrane peptide with W968A] | -14.1
ALEERAIPIWVVLVSVLGGLLLLTILVLAMWKVGFFKRNRP (peptide, UniProt P08514 989-1029, looked up) [integrin αIIb(A958-P998) transmembrane peptide with W968V/G972S] | -12.5
ALEERAIAIWVVLVGVLGGLLLLTILVLAMWKVGFFKRNRP (peptide, UniProt P08514 989-1029, looked up) [integrin αIIb(A958-P998) transmembrane peptide with P965A/W968V] | -14.6

Attention now turns to another entry.
stdin: # return recorded dH for input ALEERAIPIWVVLVGVLGGLLLLTILVLAMWKVGFFKRNRP (peptide, UniProt P08514 989-1029, looked up) [integrin αIIb(A958-P998) transmembrane peptide with W968V]
stdout: -14.3
